Test description: Toxicity liver stage against HepG2, at 10uM
Format: cell-based
Parameters: test concentration 10 uM, cell line HepG2-A16-CD81EGFP
Test settings: human, HepG2-A16-CD81EGFP cells; read-out: INHIBITION
Listing of entries alongside the reported cytotoxicity at 10 µM.
Readout: cytotoxicity at 10 µM (%)

molecule="Cc1ccnn1C(C)C(=O)Nc1cc(-c2ccncc2)[nH]n1 (configuration not stated)" measured_number=-10.7
molecule="COCCN(C(=O)c1ccn(-c2ccc(OC)cc2)n1)C(C)C(N)=O (configuration not stated)" measured_number=0.337
molecule=CN1CCN(C(=O)c2cccc(OCc3cscn3)c2)CC1 measured_number=-6.18
molecule="COCC1CN(C(=O)Cc2cccs2)Cc2nnn(C)c21 (configuration not stated)" measured_number=4.99
molecule="COCC(=O)N1CCCC1c1nc(O)cc(C(C)C)n1 (configuration not stated)" measured_number=-15.5
molecule="c1ccc2oc(NC3CCCN(Cc4noc(C5CC5)n4)C3)nc2c1 (configuration not stated)" measured_number=-0.989
molecule="CSCc1cc(C(=O)NC2(C#N)CCSC2)ccc1F (configuration not stated)" measured_number=-4.59
molecule=COc1ccc(-c2cnc(CN3CCn4c(C)nnc4C3)o2)cc1 measured_number=-13.5
molecule="CC(C)c1nccn1-c1cncc(C2CCCN(C3CCCCC3)C2)n1 (configuration not stated)" measured_number=-9.97
molecule="CSCC(C)(O)CNS(=O)(=O)c1cccc(Cl)c1 (configuration not stated)" measured_number=-0.396
molecule=COCCNC(=O)N1CCN(C(=O)Cc2ccccc2F)CC1 measured_number=-8.85
molecule=O=C(Nc1cnn(Cc2ccc(Cl)cc2)c1)N[C@@H]1C=C[C@H](CO)C1 measured_number=-2.96
molecule=CCCc1nc(C)c(CNc2nc(C)nc3oc(C)nc23)s1 measured_number=-44.6
molecule=CS(=O)(=O)N1CCC(CNC(=O)c2cnccn2)CC1 measured_number=0.503
molecule="COC(=O)c1ccc(N2CCN(C(=O)c3cc(C)on3)C(C)C2)cc1 (configuration not stated)" measured_number=-7.85
molecule=O=C(N1CCOCC1)N1CC[C@H]2[C@@H]1CCC(=O)N2c1ccccc1 measured_number=6.53
molecule="Cc1nc(C(C)NC(=O)c2cn(C/C=C/c3ccccc3)nn2)n[nH]1 (configuration not stated)" measured_number=10.7
